# Method description: Stability of DNPs by DLS after storage at 5° C.
# Format: physicochemical
# Design: key: Excellent: the original sizes and distribution types remained almost the same after storage; Good: the original sizes and distribution types changed slightly (size difference was less than 100 nm) or the original size remained almost the same but the DLS curve showed more size distributions after storage
# Condition notes: after 21 days at 5° C.
# Method: The stability of the DNPs as assayed by DLS. All the samples are prepared in acetate buffer. […]
Reported metric: Ranking of stability

These solved cases illustrate the format of a correct answer.
[
  {
    "Molecule": "CCCCCCCCCCCCCCCCCCOc1cc(COC(=O)CCCN2CCN(C)CC2)cc(OCCCCCCCCCCCCC)c1 [IAJD 177]",
    "Ranking of stability": "Excellent"
  },
  {
    "Molecule": "CCCCCCCCCCCCCCCCCCOc1cc(COC(=O)CCCN2CCN(CCO)CC2)cc(OCCCCCCCCCCCCC)c1 [IAJD 178]",
    "Ranking of stability": "Excellent"
  },
  {
    "Molecule": "CCCCCCCCCCCCCCOc1cc(COC(=O)CCCN2CCN(C)CC2)cc(OCCCCCCCCCCCCC)c1 [IAJD 171]",
    "Ranking of stability": "Excellent"
  },
  {
    "Molecule": "CCCCCCCCCCCCCOc1cc(COC(=O)CCCN2CCN(C)CC2)cc(OCC(CC)CCCC)c1 (stereo not drawn) [IAJD 161]",
    "Ranking of stability": "Excellent"
  },
  {
    "Molecule": "CCCCCCCCCCCCCCCCOc1cc(COC(=O)CCCN2CCN(C)CC2)cc(OCCCCCCCCCCCCC)c1 [IAJD 173]",
    "Ranking of stability": "Good"
  }
]

// moving on: another record for Ranking of stability
Record summary for CCCCCCCCCCCCCOc1cc(COC(=O)CCCN2CCN(CCO)CC2)cc(OCC(CC)CCCC)c1 (stereo not drawn) [IAJD 162] : reported Ranking of stability = Excellent

====

# Method description: Cryo-TEM of dendrimersomes from glycerol-JDs, number of vesicle layers
# Assay type: physicochemical
# Condition notes: vesicles with 5 layers
Reported metric: Number of vesicle layers: 5 (count of vesicles)
Give only the figure.

Record summary for CCCCCCCCCCCCOc1cc(OCCCCCCCCCCCC)cc(C(=O)OC[C@@H](COC(=O)C(C)(COC(=O)c2cc(OCCOCCOCCOC)c(OCCOCCOCCOC)c(OCCOCCOCCOC)c2)COC(=O)c2cc(OCCOCCOCCOC)c(OCCOCCOCCOC)c(OCCOCCOCCOC)c2)OC(=O)c2cc(OCCCCCCCCCCCC)cc(OCCCCCCCCCCCC)c2)c1 [Compound 1S, (3,5)-12G1-GC-(S)-BMPA-(3,4,5)-3EO-G1] : reported Number of vesicle layers: 5 (count of vesicles) = 1

====

# Method description: Stability of DNPs by DLS after storage at 5° C.
# Type: physicochemical
# Design: key: U: DLS curve showed unimodal size distribution; B: DLS curve showed bimodal size distribution; M: DLS curve showed multimodal size distribution
# Condition notes: before storage; IAJD 4.0 mg/mL + Luc-mRNA 0.1 mg/mL, acetate buffer pH 4.00
# Protocol: The stability of the DNPs as assayed by DLS. All the samples are prepared in acetate buffer. […]
Marks after values point to notes of the source that are not given here.
Reported metric: Original size distribution type (DLS curve)

These solved cases illustrate the format of a correct answer.
[
  {
    "Compound": "CCCCCCCCCCCOc1cc(COC(=O)CCCN2CCN(C)CC2)cc(OCCCCCCCCCC)c1",
    "Result": "(U)"
  },
  {
    "Compound": "CCCCCCCCCCCCCCCCCCOc1cc(COC(=O)CCCN2CCN(CCO)CC2)cc(OCCCCCCCCCCC)c1",
    "Result": "(B)"
  },
  {
    "Compound": "CCCCCCCCCCCOc1cc(COC(=O)CCCN2CCN(CCO)CC2)cc(OCCCCCCCC)c1",
    "Result": "(B)^b"
  },
  {
    "Compound": "CCCCCCCCCCCCCCCCCCOc1cc(COC(=O)CCCN2CCN(CCO)CC2)cc(OCCCCCCCCCCCCCCC)c1",
    "Result": "(B)"
  },
  {
    "Compound": "CCCCCCCCCCCCCCCOc1cc(COC(=O)CCCN2CCN(CCO)CC2)cc(OCCCCCCCCCC)c1",
    "Result": "(B)"
  }
]

Record summary for CCCCCCCCCCCCCCCCCOc1cc(COC(=O)CCCN2CCN(C)CC2)cc(OCCCCCCCCCCCCCCC)c1 : reported Original size distribution type (DLS curve) = (U)

Record summary for CCCCCCCCCCCCCOc1cc(COC(=O)CCCN2CCN(CCO)CC2)cc(OCC(CC)CCCC)c1 (centres unmarked) : reported Original size distribution type (DLS curve) = (B)
